The measured values listed here are drawn from ChEMBL document CHEMBL1165973.

# System: Pseudomonas aeruginosa
# ASSAY_OVERVIEW: Antibacterial activity at Pseudomonas aeruginosa PAO1 at 2 mM
# Type: functional, organism-based
Active and inactive are the calls of the source. The rule behind the calls is not given here.

>  <CPD_SMILES>
C=C1CC[C@@H]2[C@](C)(CO)[C@H](O)CC[C@@]2(C)[C@@H]1C/C=C1/C(=O)OC[C@H]1OC(=O)CCCCC1CCCC1

>  <Activity>
inactive

$$$$
>  <CPD_SMILES>
C=C1CC[C@@H]2[C@](C)(CO)[C@H](O)CC[C@@]2(C)[C@@H]1C/C=C1/C(=O)OC[C@H]1OC(=O)CCCCCCC

>  <Activity>
inactive

$$$$
>  <CPD_SMILES>
C=C1CC[C@@H]2[C@](C)(CO)[C@H](O)CC[C@@]2(C)[C@@H]1C/C=C1/C(=O)OC[C@H]1OC(=O)CC12CC3CC(CC(C3)C1)C2

>  <Activity>
inactive

$$$$
>  <CPD_SMILES>
C=C1CC[C@@H]2[C@](C)(CO)[C@H](O)CC[C@@]2(C)[C@@H]1C/C=C1/C(=O)OC[C@H]1OC(=O)CCCCC

>  <Activity>
inactive

$$$$
>  <CPD_SMILES>
C=C1CC[C@@H]2[C@]3(C)COC(C)(C)O[C@@H]3CC[C@@]2(C)[C@@H]1C/C=C1/C(=O)OC[C@H]1OC(=O)/C=C/C1CCCCC1

>  <Activity>
inactive

$$$$
>  <CPD_SMILES>
C=C1CC[C@@H]2[C@](C)(CO)[C@H](O)CC[C@@]2(C)[C@@H]1C/C=C1/C(=O)OC[C@H]1OC(=O)/C=C/C1CCCCC1

>  <Activity>
inactive

$$$$
>  <CPD_SMILES>
C=C1CC[C@@H]2[C@]3(C)COC(C)(C)O[C@@H]3CC[C@@]2(C)[C@@H]1C/C=C1/C(=O)OC[C@H]1OC(=O)CCCCCCCCCCC

>  <Activity>
inactive

$$$$
>  <CPD_SMILES>
C=C1CC[C@@H]2[C@](C)(CO)[C@H](O)CC[C@@]2(C)[C@@H]1C/C=C1/C(=O)OC[C@H]1OC(=O)/C=C/C

>  <Activity>
inactive

$$$$
>  <CPD_SMILES>
C=C1CC[C@@H]2[C@]3(C)COC(C)(C)O[C@@H]3CC[C@@]2(C)[C@@H]1C/C=C1/C(=O)OC[C@H]1OC(=O)CCCCCCC

>  <Activity>
inactive

$$$$
>  <CPD_SMILES>
C=C1CC[C@@H]2[C@]3(C)COC(C)(C)O[C@@H]3CC[C@@]2(C)[C@@H]1C/C=C1/C(=O)OC[C@H]1OC(=O)/C=C/C

>  <Activity>
inactive

$$$$
>  <CPD_SMILES>
C=C1CC[C@@H]2[C@]3(C)COC(C)(C)O[C@@H]3CC[C@@]2(C)[C@@H]1C/C=C1/C(=O)OC[C@H]1OC(=O)CCCC1CCCC1

>  <Activity>
inactive

$$$$
>  <CPD_SMILES>
C=C1CC[C@@H]2[C@]3(C)COC(C)(C)O[C@@H]3CC[C@@]2(C)[C@@H]1C/C=C1/C(=O)OC[C@H]1OC(=O)C12CC3CC(CC(C3)C1)C2

>  <Activity>
inactive

$$$$
>  <CPD_SMILES>
C=C1CC[C@@H]2[C@]3(C)COC(C)(C)O[C@@H]3CC[C@@]2(C)[C@@H]1C/C=C1/C(=O)OC[C@H]1OC(=O)/C=C/c1ccco1

>  <Activity>
inactive

$$$$
>  <CPD_SMILES>
C=C1CC[C@@H]2[C@]3(C)COC(C)(C)O[C@@H]3CC[C@@]2(C)[C@@H]1C/C=C1/C(=O)OC[C@H]1OC(=O)CCCC

>  <Activity>
inactive

$$$$
